# study-target: Quadruplex DNA
# experiment: Binding affinity to 5'-Biotinylated-AR1 G-quadruplex oligonucleotide (unknown origin) by SPR analysis
parameter-measured: Kd (nM)

• CN(C)CCCNc1cc2c3c(ccc4c3c1C(=O)N(CCCN(C)C)C4=O)C(=O)N(CCCN(C)C)C2=O = 41.2
• CN(C)CCN1C(=O)c2ccc3c4c(c(NCCc5ccc(O)c(CN(C)C)c5)cc(c24)C1=O)C(=O)N(CCN(C)C)C3=O = 34.2
• CN(C)CCCN1C(=O)c2ccc3c4c(c(NCCCCNc5cc6c7c(ccc8c7c5C(=O)N(CCCN(C)C)C8=O)C(=O)N(CCCN(C)C)C6=O)cc(c24)C1=O)C(=O)N(CCCN(C)C)C3=O = 92.5
• CN(C)CCN1C(=O)c2ccc3c4c(c(C#Cc5ccc(CN(C)C)c(O)c5)cc(c24)C1=O)C(=O)N(CCN(C)C)C3=O = 21.4
• CN(C)CCCn1c(=O)c2ccc3c(=O)n(CCCN(C)C)c(=O)c4c5[nH]c6ccccc6[nH]c5c(c1=O)c2c34.Cl.Cl = 17.9
• CN(C)CCCN1C(=O)c2ccc3c4c(c5[nH]c(=O)c(=O)[nH]c5c(c24)C1=O)C(=O)N(CCCN(C)C)C3=O = 38.3
• CN(C)CCN1C(=O)c2ccc3c4c(c(NCC(=O)Nc5ccc(O)c(CO)c5)cc(c24)C1=O)C(=O)N(CCN(C)C)C3=O = 43.9
• CN(C)CCCN1C(=O)c2ccc3c4c(c(NCCCCCCCNc5cc6c7c(ccc8c7c5C(=O)N(CCCN(C)C)C8=O)C(=O)N(CCCN(C)C)C6=O)cc(c24)C1=O)C(=O)N(CCCN(C)C)C3=O = 182

Data origin, for the record: ChEMBL document CHEMBL4411261
